Ref: paper PMC6916368

# System: Danio rerio embryos
# ASSAY_DETAILS: Danio rerio embryo toxicity assay (not dechorionated)
# Type: in vivo
# EXPERIMENTAL_PARAMETERS: 25 µM, 24 h
READOUT: Survival of embryos (not dechorionated) (%)
Give bare numbers, in %.

Examples from the recorded data:
CC(C)C[C@H](NC(=O)[C@H](Cc1ccccc1)NC(=O)c1cnccn1)B(O)O [Bortezomib 1, Bortezomib, reference compound]: 100
CC(C)C[C@H](NC(=O)OCc1ccccc1)C(=O)N[C@@H](CC(C)C)C(=O)N[C@@H](CC(C)C)C(=O)C(=O)Nc1cccc(Oc2ccccc2)c1: 100
Cc1cc(C)c(Oc2ccccc2)cc1NC(=O)C(=O)[C@H](CC(C)C)NC(=O)[C@H](CC(C)C)NC(=O)[C@H](CC(C)C)NC(=O)c1cc(Cl)ccc1Cl: 100

Kindly give each listed record's Survival of embryos (not dechorionated).
1. Cc1ccc(NC(=O)C(=O)C(CC(C)C)NC(=O)C(CC(C)C)NC(=O)C(CC(C)C)NC(=O)OCc2ccccc2)c(C)c1 (centres unmarked)
2. CC(C)C[C@H](NC(=O)[C@H](CCc1ccccc1)NC(=O)CN1CCOCC1)C(=O)N[C@@H](Cc1ccccc1)C(=O)N[C@@H](CC(C)C)C(=O)[C@@]1(C)CO1

Solution:
1: 80; 2: 100

* * *

# TARGET_OR_TEST_SYSTEM: β5c subunit of isolated human 20S proteasome (Homo sapiens)
# Construct: purchased Enzo Life Sciences
# ASSAY_DETAILS: Proteasome inhibition assay (20 S Proteasome Assay Kit, Suc‐LLVY‐AMC)
# Assay type: biochemical
# EXPERIMENTAL_PARAMETERS: c = 1 µM, n=1; read-out: Inhibition cCP β5
# Protocol: Proteasome inhibition assay. […] The 20 S Proteasome Assay Kit for Drug Discovery was used according to the supplier's protocol using Suc‐LLVY‐AMC (β5), Bz‐VGR‐AMC (β2) or Z‐LLE‐AMC (β1) as substrates (Enzo Life Sciences). […] After 30 min incubation, substrate was added (cfinal=100 μM), incubated for 60 minutes and fluorescence was read using a Tecan M1000 microplate reader. […] IC50 values were determined from technical duplicates as mean value of three independent experiments.
Hi there, I'd appreciate the recorded inhibition at 1 µM for every entry that follows.
Give bare numbers, in %.

Cc1ccc(Oc2ccccc2)cc1NC(=O)C(=O)[C@H](CC(C)C)NC(=O)[C@H](CC(C)C)NC(=O)[C@H](CC(C)C)NC(=O)OCc1ccccc1: 75
CC(C)C[C@H](NC(=O)OCc1ccccc1)C(=O)N[C@@H](CC(=O)OC(C)(C)C)C(=O)N[C@@H](CC(C)C)C(=O)C(=O)Nc1cccc(Oc2ccccc2)c1: 84

Switching to the query record.
Problem: // query inhibition at 1 µM value for entry CC(C)C[C@@H](C=O)NC(=O)[C@H](CC(=O)OC(C)(C)C)NC(=O)[C@H](CC(C)C)NC(=O)c1cc(Cl)ccc1Cl
Solution: 90

* * *

Hi there, I'd appreciate the recorded inhibition at 1 µM for every entry that follows.
# TARGET_OR_TEST_SYSTEM: β2c subunit of isolated human 20S proteasome (Homo sapiens, UniProt Q99436)
# Construct: purchased Enzo Life Sciences
# ASSAY_DETAILS: Proteasome inhibition assay (20 S Proteasome Assay Kit, Bz‐VGR‐AMC)
# Assay type: biochemical
# EXPERIMENTAL_PARAMETERS: c = 1 µM, n=1; read-out: Inhibition cCP β2
One number for each entry, in %.

CC(C)C[C@@H](C=O)NC(=O)[C@H](CC(=O)OC(C)(C)C)NC(=O)[C@H](CC(C)C)NC(=O)c1cc(Cl)ccc1Cl: 10
Cc1ccc(Oc2ccccc2)cc1NC(=O)C(=O)[C@H](CC(C)C)NC(=O)[C@H](CC(C)C)NC(=O)[C@H](CC(C)C)NC(=O)OCc1ccccc1: 9

Switching to the query record.
Problem: // query inhibition at 1 µM value for entry Cc1cc(C)c(Oc2ccccc2)cc1NC(=O)C(=O)[C@H](CC(C)C)NC(=O)[C@H](CC(=O)OC(C)(C)C)NC(=O)[C@H](CC(C)C)NC(=O)OCc1ccccc1
Solution: 11
